The reported measurements were obtained from ChEMBL document CHEMBL2086230.

# Test system: MIA PaCa-2
# EXPERIMENT: Cytotoxicity against human MIAPaCa2 cells after 72 hrs by resazurin assay
# Type: functional, cell-based
# DETAILS: mia paca-2
PARAMETER: pIC50
Remember, pIC50 is on a log scale: it is -log10 of the molar concentration.

Examples with answers:
{"columns": ["COMPOUND", "pIC50"],
 "data": [
  ["CC(C)=CC[C@H]1C[C@]2(CC=C(C)C)C(=O)[C@@](CC=C(C)C)(C(=O)C(C(=O)c3ccccc3)=C2O)C1(C)C (stereo in doubt; (-)-4) [6-EPI-CLUSIANONE]", 5.42],
  ["CC(C)=CCC1=C(O)C2(CC=C(C)C)CC(CC=C(C)C)C(C)(C)C(C(=O)c3ccccc3)(C1=O)C2=O (stereo in doubt; (-)-3)", 5.46]
]}

// next entry
Kindly note the recorded pIC50 for CC(C)=CCC1=C(O)C2(C(=O)c3ccccc3)CC(CC=C(C)C)C(C)(C)C(CC=C(C)C)(C1=O)C2=O (stereo in doubt; (-)-5) , which is 5.07
